Target: human SGLT1 (Homo sapiens, UniProt P13866)
Construct: expressed in transfected cells; host or cells: CHO-K1
Assay: SGLT1 assay: Na-dependent 14C-AMG uptake in CHO-K1 cells stably expressing human SGLT1
Format: cell-based
Conditions: at 0.3 μM
Method: SGLT1 and SGLT2 were cloned in form of cDNA from human small intestine (Genbank M24847), and from human kidney (Genbank M95549), respectively. […] Inhibition of SGLT1 and SGLT2 activity was assessed in CHO K1 cells stably expressing either human SGLT1 or SGLT2, using the SGLT specific glucose analog methyl-glucopyranoside (Sigma Catalog No. M-9376). […] The cells were then solubilized by adding 60 μl of MICROSCINT™20 and the Na-dependent ^14C-AMG uptake was quantified by measuring radioactivity. […]
MEASURED METRIC: inhibition at 0.3 µM (%)
Numbers only, in %.

COMPOUND	UNIT DESCRIPTOR	READOUT VALUE
OC[C@H]1O[C@@H](c2cc(Cc3ccc4c(c3)CC4)ccc2O)[C@H](O)[C@@H](O)[C@@H]1O [Compound 25]	%	36
N#Cc1ccc([C@@H]2O[C@H](CO)[C@@H](O)[C@H](O)[C@H]2O)cc1Cc1ccc2c(c1)CC2 [Compound 16]	%	0
OC[C@H]1O[C@@H](c2cc(Cc3ccc4c(c3)CC4)c(Cl)cc2OC(F)F)[C@H](O)[C@@H](O)[C@@H]1O [Compound 37]	%	20

For every item below, please supply its inhibition at 0.3 µM.
1. CN(C)c1ccc([C@@H]2O[C@H](CO)[C@@H](O)[C@H](O)[C@H]2O)cc1Cc1ccc2c(c1)CC2 [Compound 21]
2. OC[C@H]1O[C@@H](c2cc(Cc3ccc4c(c3)CC4)c(F)cc2O)[C@H](O)[C@@H](O)[C@@H]1O [Compound 19]
3. CCc1cc(OC(F)F)c([C@@H]2O[C@H](CO)[C@@H](O)[C@H](O)[C@H]2O)cc1Cc1ccc2c(c1)CC2 [Compound 122]
4. OC[C@H]1O[C@@H](c2ccc(Cl)c(Cc3ccc4c(c3)CC4)c2)[C@H](O)[C@@H](O)C1(F)F [Compound 106]
5. COc1cc(N(C)C)c(Cc2ccc3c(c2)CC3)cc1[C@@H]1O[C@H](CO)[C@@H](O)[C@H](O)[C@H]1O [Compound 23]
6. Cc1cc(OC(F)F)c([C@@H]2O[C@H](CO)[C@@H](O)[C@H](O)[C@H]2O)cc1Cc1ccc2c(c1)CC2 [Compound 36]
7. COc1cc(OC(F)(F)F)c([C@@H]2O[C@H](CO)[C@@H](O)[C@H](O)[C@H]2O)cc1Cc1ccc2c(c1)CC2 [Compound 34]

Key:
67
62
53
41
24
26
24

For every item below, please supply its inhibition at 0.3 µM.
1. Cc1cc(OC(F)(F)F)c([C@@H]2O[C@H](CO)[C@@H](O)[C@H](O)[C@H]2O)cc1Cc1ccc2c(c1)CC2 [Compound 33]
2. OC[C@H]1O[C@@H](c2cccc(Cc3ccc4c(c3)CC4)c2)[C@H](O)[C@@H](O)[C@@H]1O [Compound 24]
3. Cc1c(Cc2ccc3c(c2)CC3)ccc(O)c1[C@@H]1O[C@H](CO)[C@@H](O)[C@H](O)[C@H]1O [Compound 28]
4. COc1cc(C2CC2)c(Cc2ccc3c(c2)CC3)cc1[C@@H]1O[C@H](CO)[C@@H](O)[C@H](O)[C@H]1O [Compound 15]

Key:
1: 23; 2: 5; 3: 50; 4: 67

====

biological target: human SGLT1 (Homo sapiens); assay: SGLT1 assay: Na-dependent 14C-AMG uptake in CHO-K1 cells stably expressing human SGLT1; conditions: 500 μM AMG, 2 hours at 37° C.
Exercise: state measured IC50 for each of the compounds provided.
Numbers only, in nM.

COMPOUND	MEASURED METRIC	UNIT DESCRIPTOR	READOUT VALUE
[2H]c1c(C)c(Cc2ccc3c(c2)CC3)cc([C@@H]2O[C@H](CO)[C@@H](O)[C@H](O)[C@H]2O)c1O (single isomer, unassigned) [Compound 121]	IC50	nM	11

For every item below, please supply its IC50.
1. CCc1cc(OC2CC2)c([C@@H]2O[C@H](CO)[C@@H](O)[C@H](O)[C@H]2O)cc1Cc1ccc2c(c1)CC2 [Compound 116]
2. CCc1cc(O)c([C@@H]2O[C@H](CO)[C@@H](O)[C@H](O)[C@H]2O)cc1Cc1ccc2c(c1)CC2 [Compound 12]

Key:
[13, 3]

====

target: human SGLT1 (Homo sapiens); construct: expressed in transfected cells; host or cells: CHO-K1; test: SGLT1 assay: Na-dependent 14C-AMG uptake in CHO-K1 cells stably expressing human SGLT1; format: cell-based; conditions: 500 μM AMG, 2 hours at 37° C.
Exercise: state measured pIC50 for each of the compounds provided.
Answers are plain numbers, as −log10 of the molar value.

COMPOUND	pIC50
Cc1cc(O)c([C@@H]2O[C@H](CO)C(F)(F)[C@H](O)[C@H]2O)cc1Cc1ccc2c(c1)CC2 [Compound 92]	7.85

For every item below, please supply its pIC50.
1. CCc1ccc([C@@H]2O[C@H](CO)[C@@H](O)[C@H](O)[C@H]2O)cc1Cc1ccc2c(c1)CC2 [Compound 4]
2. CCOc1cc(Cl)c(Cc2ccc3c(c2)CC3)cc1[C@@H]1O[C@H](CO)C(F)(F)[C@H](O)[C@H]1O [Compound 104]
3. [2H]C1([2H])Cc2ccc(Cc3cc([C@@H]4O[C@H](CO)[C@@H](O)[C@H](O)[C@H]4O)c(O)cc3C)cc21 (single isomer, unassigned) [Compound 61]
4. [2H]C1([2H])Cc2ccc(Cc3cc([C@@H]4O[C@H](CO)[C@@H](O)[C@H](O)[C@H]4O)c(OC)cc3CC)cc21 [Compound 69]
5. OC[C@H]1O[C@@H](c2ccc(Cl)c(Cc3ccc4c(c3)CC4)c2)[C@H](O)[C@@H](O)[C@@H]1O [Compound 2]
6. Cc1ccc([C@@H]2O[C@H](CO)[C@@H](O)[C@H](O)[C@H]2O)cc1C(F)(F)c1ccc2c(c1)CC2 [Compound 141]

Key:
1. 7.74
2. 7.85
3. 8.15
4. 7.30
5. 7.35
6. 7.48

====

molecular target: human SGLT2 (Homo sapiens, UniProt P31639); construct: expressed in transfected cells; host or cells: CHO-K1; test: SGLT2 assay: Na-dependent 14C-AMG uptake in CHO-K1 cells stably expressing human SGLT2; type: cell-based; conditions: 500 μM AMG, 2 hours at 37° C.
Sequence (P31639 whole entry): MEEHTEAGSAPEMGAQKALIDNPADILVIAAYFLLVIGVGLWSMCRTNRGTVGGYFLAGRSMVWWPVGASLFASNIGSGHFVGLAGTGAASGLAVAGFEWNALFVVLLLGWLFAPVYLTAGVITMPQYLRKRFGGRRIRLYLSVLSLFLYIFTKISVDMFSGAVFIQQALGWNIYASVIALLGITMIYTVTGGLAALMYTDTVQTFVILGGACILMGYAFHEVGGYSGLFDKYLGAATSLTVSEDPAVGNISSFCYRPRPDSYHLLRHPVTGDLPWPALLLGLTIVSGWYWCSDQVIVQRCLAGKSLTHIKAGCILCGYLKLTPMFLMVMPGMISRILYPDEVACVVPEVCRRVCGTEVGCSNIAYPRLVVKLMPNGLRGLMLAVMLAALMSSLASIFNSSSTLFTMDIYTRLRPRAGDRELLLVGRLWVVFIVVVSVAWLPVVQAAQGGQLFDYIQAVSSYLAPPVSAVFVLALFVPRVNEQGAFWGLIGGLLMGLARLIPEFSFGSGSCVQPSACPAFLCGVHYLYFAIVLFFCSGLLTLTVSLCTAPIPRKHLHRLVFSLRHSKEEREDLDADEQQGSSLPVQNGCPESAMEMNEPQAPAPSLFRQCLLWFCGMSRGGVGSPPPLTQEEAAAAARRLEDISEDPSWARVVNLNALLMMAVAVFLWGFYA
Exercise: state measured pIC50 for each of the molecules provided.
One number for each entry, as −log10 of the molar value.

Recorded results for 8 molecules are shown here.
MOLECULE	READOUT VALUE
OC[C@H]1O[C@@H](c2cc(Cc3ccc4c(c3)CC4)c(Cl)cc2F)[C@H](O)[C@@H](O)[C@@H]1O	8.52
[2H]C([2H])(c1ccc2c(c1)CC2)c1cc([C@@H]2O[C@H](CO)[C@@H](O)[C@H](O)[C@H]2O)c(OC)cc1Cl	8.70
[2H]C1([2H])Cc2cc(Cc3cc([C@@H]4O[C@H](CO)[C@@H](O)[C@H](O)[C@H]4O)c(OC)cc3C)ccc21	8.70
COc1cc(OCF)c([C@@H]2O[C@H](CO)[C@@H](O)[C@H](O)[C@H]2O)cc1Cc1ccc2c(c1)CC2	7.74
[2H]C1([2H])Cc2cc(Cc3cc([C@@H]4O[C@H](CO)[C@@H](O)[C@H](O)[C@H]4O)ccc3OC)ccc21 (single isomer, unassigned)	8.10
Cc1cc(O)c([C@@H]2O[C@H](CO)C(F)(F)[C@H](O)[C@H]2O)cc1Cc1ccc2c(c1)CC2	8.70
CCOc1cc(C)c(Cc2ccc3c(c2)CC3)cc1[C@@H]1O[C@H](CO)[C@@H](F)[C@H](O)[C@H]1O	9.00
COc1cc(Cl)c(Cc2ccc3c(c2)CC3)cc1[C@@H]1O[C@H](CO)[C@@H](F)[C@H](O)[C@H]1O	9.00

For every item below, please supply its pIC50.
1. [2H]C1([2H])Cc2ccc(Cc3cc([C@@H]4O[C@H](CO)[C@@H](O)[C@H](O)[C@H]4O)c(F)cc3Cl)cc21
2. [2H]C1([2H])Cc2ccc(Cc3cc([C@@H]4O[C@H](CO)[C@@H](O)[C@H](O)[C@H]4O)c(OC)cc3C)cc21
3. Cc1cc(F)c([C@@H]2O[C@H](CO)[C@@H](O)[C@H](O)[C@H]2O)cc1Cc1ccc2c(c1)CC2

Key:
[8.52, 9.00, 8.52]

====

Molecular target: human SGLT1 (Homo sapiens, UniProt P13866)
Sequence (P13866 1-664): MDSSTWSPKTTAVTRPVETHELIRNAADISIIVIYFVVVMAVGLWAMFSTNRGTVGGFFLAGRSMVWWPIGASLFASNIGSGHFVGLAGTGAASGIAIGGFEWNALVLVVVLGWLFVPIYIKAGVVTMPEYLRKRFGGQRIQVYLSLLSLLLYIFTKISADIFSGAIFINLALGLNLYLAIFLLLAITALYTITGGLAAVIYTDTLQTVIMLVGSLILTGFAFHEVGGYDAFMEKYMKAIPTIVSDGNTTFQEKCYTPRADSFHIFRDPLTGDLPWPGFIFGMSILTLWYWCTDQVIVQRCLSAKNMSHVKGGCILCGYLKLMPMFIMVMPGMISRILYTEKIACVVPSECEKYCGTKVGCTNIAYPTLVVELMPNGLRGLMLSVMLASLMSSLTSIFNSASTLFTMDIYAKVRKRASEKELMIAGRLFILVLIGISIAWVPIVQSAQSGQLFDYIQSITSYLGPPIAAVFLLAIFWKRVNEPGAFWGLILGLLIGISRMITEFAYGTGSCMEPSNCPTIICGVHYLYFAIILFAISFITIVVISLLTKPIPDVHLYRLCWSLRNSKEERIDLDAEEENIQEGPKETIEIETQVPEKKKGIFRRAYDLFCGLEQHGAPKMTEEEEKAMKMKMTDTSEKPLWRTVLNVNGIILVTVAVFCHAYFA
Assay: SGLT1 assay: Na-dependent 14C-AMG uptake in CHO-K1 cells stably expressing human SGLT1
Settings: 500 μM AMG, 2 hours at 37° C.
Exercise: state measured IC50 for each of the compounds provided.
Form entry: enter the amount, then its unit.

Recorded results for 2 compounds are shown here.
COMPOUND	IC50
[2H]C1([2H])Cc2cc(Cc3cc([C@@H]4O[C@H](CO)[C@@H](O)[C@H](O)[C@H]4O)ccc3C)ccc21	46 nM
CCOc1cc(OC)c(Cc2ccc3c(c2)CC3)cc1[C@@H]1O[C@H](CO)[C@@H](F)[C@H](O)[C@H]1O	20 nM

Proceed to the following item.
Exercise: Any idea what IC50 was measured for [2H]C1([2H])Cc2ccc(Cc3cc([C@@H]4O[C@H](CO)[C@@H](O)[C@H](O)[C@H]4O)ccc3OC)cc21 (single isomer, unassigned) ?
Key: 93 nM

The origin of these recorded values is patent US10815210B2.
